Let's look at some molecules and their measured survival.
# System: DeltatarO mutant
# experimental.protocol: S. aureus survival, RN4220 and DeltatarO strains – OD600, teichoic acid synthesis inhibitors, primary screen (AID 463173)
# applied.conditions: S. aureus RN4220 wild type/DeltatarO growth, OD600, 18 h, active compounds read low, screened at 18.75 µg/mL (by protocol)
About 4,300 (8.3%) of roughly 52,000 compounds were called active. This is one part of a sample in which actives are shown more often than they occur.

{"columns": ["compound.smiles", "survival (%)"],
 "data": [
  ["Cc1ccc(NC(=O)CSc2n[nH]c(-c3ccc(F)cc3)n2)cc1F", 128],
  ["OCc1cnc(SCc2ccc(F)cc2)n1Cc1ccc(F)cc1", 88],
  ["Cc1ccc2nc3c(cc(C#N)c(=O)n3-c3nnc(SCc4ccc(F)cc4)s3)c(=O)n2c1", 72],
  ["CCOC(=O)c1ccccc1NC(=O)CSc1ncc(CO)n1Cc1ccc(C)cc1", 77],
  ["COc1ccc(Cn2ccnc2SCC(=O)NCc2ccco2)cc1", 75],
  ["Cc1ccc(Cn2c(CO)cnc2SCC(=O)Nc2ccc(C)c(Cl)c2)cc1", -5],
  ["Cc1ccc(Cn2c(CO)cnc2SCC(=O)NCc2ccccc2Cl)cc1", 73],
  ["COc1ccc(Cn2c(CO)cnc2SCC(=O)NCc2ccco2)cc1", -5],
  ["CC(C)Oc1ccccc1-c1nc(SCC(=O)c2ccc(F)cc2)n[nH]1", 40],
  ["COc1ccc(Cn2c(CO)cnc2SCc2ccc(F)cc2)cc1", 17],
  ["COc1ccc(Cn2c(CO)cnc2SCc2ccccc2)cc1", 89]
]}

---

# Test system: DeltatarO mutant
# experimental.protocol: S. aureus survival, RN4220 and DeltatarO strains – OD600, teichoic acid synthesis inhibitors, primary screen (AID 463173)
# applied.conditions: S. aureus RN4220 wild type/DeltatarO growth, OD600, 18 h, active compounds read low, screened at 18.75 µg/mL (by protocol)
The whole screen tested about 52,000 compounds, of which about 4,300 (8.3%) were called active. The full list was thinned out, with actives kept by preference.
The entries below come with measured survival values attached.

{"columns": ["compound", "survival"],
 "data": [
  ["O=C(Nc1ccc(F)cc1F)N1CCN(c2ccc(Cl)c(Cl)c2)CC1", "48% (active)"],
  ["Cc1oc(-c2cccc(Cl)c2)nc1CN1CCCC(C(=O)NCc2ccc(Cl)cc2)C1 (stereo not given)", "-1% (active)"],
  ["Cc1ccccc1-c1nc(CN2CCCC(C(=O)NCc3ccc(Cl)cc3)C2)c(C)o1 (stereo not given)", "61% (inactive)"],
  ["Cc1oc(-c2cccc(Cl)c2)nc1CN1CCCC(C(=O)NCc2ccc(F)cc2)C1 (stereo not given)", "52% (inactive)"],
  ["Cc1cccc(-c2nc(CN3CCCC(C(=O)NCc4ccc(Cl)cc4)C3)c(C)o2)c1 (stereo not given)", "18% (active)"]
]}

---

# System: DeltatarO mutant
# experimental.protocol: S. aureus survival, RN4220 and DeltatarO strains – OD600, teichoic acid synthesis inhibitors, primary screen (AID 463173)
# applied.conditions: S. aureus RN4220 wild type/DeltatarO growth, OD600, 18 h, active compounds read low, screened at 18.75 µg/mL (by protocol)
Screen size: about 52,000 compounds; about 4,300 (8.3%) were called active. The list comes from a sample in which actives are over-represented; it also holds close analogues and randomly drawn compounds.
The label is T for survival below 90% and F for survival equal to or exceeding 90%.

{"columns": ["compound", "label.class"],
 "data": [
  ["O=C(Nc1sc2c(c1C(=O)NCC1CCCO1)CCC2)c1cc(=O)c2ccccc2o1 (stereo not given)", "T"],
  ["Cc1ccc2oc(C(=O)Nc3sc4c(c3C(=O)NCC3CCCO3)CCC4)cc(=O)c2c1 (stereo not given)", "T"],
  ["COc1ccc(OCC(=O)Nc2ccc(N3CCN(S(C)(=O)=O)CC3)cc2)cc1", "F"],
  ["O=C(CN1CCN(c2ccc(F)cc2)CC1)N1CCCC1", "T"],
  ["CN(C)S(=O)(=O)c1ccc(C(=O)NCCSc2c(-c3ccc(Br)cc3)[nH]c3ccccc23)cc1", "T"],
  ["O=S(=O)(N1CCCCC1)N1CCN(c2ccc(F)cc2)CC1", "T"],
  ["Cc1cc(C)cc(S(=O)(=O)Nc2cccc(-c3ccc(N4CCOCC4)nn3)c2)c1", "T"],
  ["Cc1ccc(C)c(CNC(=O)CN2C(=O)CSc3ccc(S(=O)(=O)N(C)C)cc32)c1", "T"],
  ["CCc1c(C)sc2c1CCN(Cc1ccccc1F)C2c1ccccc1 (stereo not given)", "F"]
]}
